Recorded values, source patent US20210275641A1.

- TGT: T1, human high affinity trimeric IL-2 receptor (CD25/CD122/CD132) (human, UniProt P01589 22-272; P14784 27-551; P31785 23-369)
- T1 sequence 1: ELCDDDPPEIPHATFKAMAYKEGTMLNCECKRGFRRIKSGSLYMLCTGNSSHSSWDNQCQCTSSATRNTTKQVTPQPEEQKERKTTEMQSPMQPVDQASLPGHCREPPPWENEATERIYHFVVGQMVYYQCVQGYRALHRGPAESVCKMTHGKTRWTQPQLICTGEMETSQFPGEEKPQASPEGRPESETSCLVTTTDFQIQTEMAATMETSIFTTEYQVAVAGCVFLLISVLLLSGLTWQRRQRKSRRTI
- T1 sequence 2: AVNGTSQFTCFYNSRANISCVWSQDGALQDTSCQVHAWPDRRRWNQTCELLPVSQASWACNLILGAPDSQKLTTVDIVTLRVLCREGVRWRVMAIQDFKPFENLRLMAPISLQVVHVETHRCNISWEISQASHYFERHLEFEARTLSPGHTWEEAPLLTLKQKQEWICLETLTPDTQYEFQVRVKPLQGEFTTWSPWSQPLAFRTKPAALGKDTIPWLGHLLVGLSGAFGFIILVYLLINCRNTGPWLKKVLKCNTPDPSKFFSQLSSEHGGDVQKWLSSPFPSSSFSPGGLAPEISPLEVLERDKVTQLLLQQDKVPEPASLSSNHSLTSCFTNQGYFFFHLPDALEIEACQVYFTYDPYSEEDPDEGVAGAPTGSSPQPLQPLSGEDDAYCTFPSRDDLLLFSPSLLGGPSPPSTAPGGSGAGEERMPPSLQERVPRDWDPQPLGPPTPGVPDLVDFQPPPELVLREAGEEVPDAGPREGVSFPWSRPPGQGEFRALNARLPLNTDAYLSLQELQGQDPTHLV
- T1 sequence 3: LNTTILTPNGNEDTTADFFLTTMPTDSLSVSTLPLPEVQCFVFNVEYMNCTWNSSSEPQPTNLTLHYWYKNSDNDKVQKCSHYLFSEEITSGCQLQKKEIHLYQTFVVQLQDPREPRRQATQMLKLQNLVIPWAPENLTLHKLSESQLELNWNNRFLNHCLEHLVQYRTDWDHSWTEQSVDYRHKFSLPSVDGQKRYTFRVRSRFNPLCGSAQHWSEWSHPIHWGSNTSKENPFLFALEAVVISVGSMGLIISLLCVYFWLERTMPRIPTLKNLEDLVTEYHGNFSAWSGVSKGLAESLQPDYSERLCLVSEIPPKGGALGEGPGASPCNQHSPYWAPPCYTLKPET
- ASSAY_NOTES: cell-based or functional assay
MEASURED_ATTRIBUTE: pSTAT5 ratio YT CD25/YT, dilution factor 4, lower table

Examples with their reported pSTAT5 ratio YT CD25/YT, dilution factor 4, lower table follow.
{"BINDER": "RSH (ligand) cytokine: APTSSSTKKTQLQLEHLRLDLSMILNGINNYKNPKLTRMLTFKFYMPKKATELKHLQCLEEELKPLEEVLNLAQSKNFHLRPRDLISNINVIVLELKGSETTFMCEYADETATIVEFLNRWITFCHSIISTLT", "OBSERVED_MEASUREMENT": 0.9}
{"BINDER": "RKH (ligand) cytokine: APTSSSTKKTQLQLEHLRLDLKMILNGINNYKNPKLTRMLTFKFYMPKKATELKHLQCLEEELKPLEEVLNLAQSKNFHLRPRDLISNINVIVLELKGSETTFMCEYADETATIVEFLNRWITFCHSIISTLT", "OBSERVED_MEASUREMENT": 1.1}

a = HEH (ligand) cytokine: APTSSSTKKTQLQLEHLHLDLEMILNGINNYKNPKLTRMLTFKFYMPKKATELKHLQCLEEELKPLEEVLNLAQSKNFHLRPRDLISNINVIVLELKGSETTFMCEYADETATIVEFLNRWITFCHSIISTLT
b = TEH (ligand) cytokine: APTSSSTKKTQLQLEHLTLDLEMILNGINNYKNPKLTRMLTFKFYMPKKATELKHLQCLEEELKPLEEVLNLAQSKNFHLRPRDLISNINVIVLELKGSETTFMCEYADETATIVEFLNRWITFCHSIISTLT
Field: entry with larger pSTAT5 ratio YT CD25/YT, dilution factor 4, lower table (options a / b ). Refer to your chosen entry by its label in the reply.
a
